- TEST_PROTOCOL: Intrinsic clearance in Wistar-Han rat at 0.5 mg/kg, iv or 1 mg/kg, po
- Assay type: ADME, organism-based
- CONDITION_SUMMARY: in vivo
log10(CL) reference
REPORTED_ENDPOINT: log10(CL) (log10 of the value in mL/min/kg)

>>> print(df.to_string())
                                   molecule  readout_value
0  CCn1c(-c2cnc(C)nc2)nc2c(-c3ccc4c(c3)[C@](C)(N[C@H]3CCOC3)C(=O)N4)ncnc21           2.20
1  CCn1c(-c2cnc(C)nc2)nc2c(-c3ccc4c(c3)[C@](C)(NCC(C)(C)F)C(=O)N4)ncnc21           1.95
2  CCn1c(-c2cnc(C)nc2)nc2c(-c3cnc4c(c3)[C@](C)(NCC(C)(C)F)C(=O)N4)ncnc21           1.46
3  CCn1c(-c2cnc(C)nc2)nc2c(-c3ccc4c(c3)[C@](C)(CC3CCO3)C(=O)N4)ncnc21 (some centres undefined)           2.00
4  CCn1c(-c2cnc(C)nc2)nc2c(-c3ccc4c(c3)[C@](C)(NC3CCC3)C(=O)N4)ncnc21           2.97
5  Cc1ncc(-c2nc3c(-c4ccc5c(c4)[C@@]4(CCCN4C(=O)C4CC4)C(=O)N5)ncnc3n2C)cn1           2.46
6  Cc1ncc(-c2nc3c(-c4ccc5c(c4)[C@@]4(CCCN4C(=O)C4CC4)C(=O)N5C)ncnc3n2C)cn1           2.11
7  Cc1ncc(-c2nc3c(-c4cnc5c(c4)[C@](C)(N[C@H]4CCOC4)C(=O)N5)ncnc3n2C)cn1           2.38
8  CCn1c(-c2cnc(C)nc2)nc2c(-c3cnc4c(c3)[C@](C)(N3CC(C)(OC)C3)C(=O)N4)ncnc21           1.26

* * *

- TEST_PROTOCOL: Unbound volume of distribution in Beagle dog at 0.5 mg/kg, iv or 1 mg/kg, po
- Format: ADME, organism-based, Canis lupus familiaris
- CONDITION_SUMMARY: in vivo
Please map values of Vdu to classes as shown: lower range = under 3 L/kg, middle range = from 3 L/kg up to 4 L/kg, upper range = 4 L/kg and over

                                   molecule  assigned_class
0  CCn1c(-c2cnc(C)nc2)nc2c(-c3ccc4c(c3)[C@](C)(CC3CCO3)C(=O)N4)ncnc21 (stereo not given in full)    middle range
1  Cc1ncc(-c2nc3c(-c4ccc5c(c4)[C@@]4(CCCN4C(=O)C4CC4)C(=O)N5)ncnc3n2C)cn1     lower range
2  CCn1c(-c2cnc(C)nc2)nc2c(-c3ccc4c(c3)[C@](C)(N3CC(C)(OC)C3)C(=O)N4)ncnc21     upper range
3  CCn1c(-c2cnc(C)nc2)nc2c(-c3ccc4c(c3)[C@](C)(NCC(C)(C)F)C(=O)N4)ncnc21     upper range
4  CCn1c(-c2cnc(C)nc2)nc2c(-c3ccc4c(c3)[C@@]3(CCCN3C(=O)C3CC3)C(=O)N4)ncnc21    middle range
5  Cc1ncc(-c2nc3c(-c4cnc5c(c4)[C@](C)(N[C@H]4CCOC4)C(=O)N5)ncnc3n2C)cn1     lower range
6  Cc1ncc(-c2nc3c(-c4ccc5c(c4)[C@@]4(CCCN4C(=O)C4CC4)C(=O)N5C)ncnc3n2C)cn1     lower range
7  CCn1c(-c2cnc(C)nc2)nc2c(-c3cnc4c(c3)[C@](C)(N3CC(C)(OC)C3)C(=O)N4)ncnc21     lower range
8  CCn1c(-c2cnc(C)nc2)nc2c(-c3ccc4c(c3)[C@@]3(CCCN3C(C)C)C(=O)N4)ncnc21     upper range

* * *

- TARGET_ENTITY: Sodium channel protein type 5 subunit alpha (Homo sapiens)
- Sequence (Q14524 whole entry): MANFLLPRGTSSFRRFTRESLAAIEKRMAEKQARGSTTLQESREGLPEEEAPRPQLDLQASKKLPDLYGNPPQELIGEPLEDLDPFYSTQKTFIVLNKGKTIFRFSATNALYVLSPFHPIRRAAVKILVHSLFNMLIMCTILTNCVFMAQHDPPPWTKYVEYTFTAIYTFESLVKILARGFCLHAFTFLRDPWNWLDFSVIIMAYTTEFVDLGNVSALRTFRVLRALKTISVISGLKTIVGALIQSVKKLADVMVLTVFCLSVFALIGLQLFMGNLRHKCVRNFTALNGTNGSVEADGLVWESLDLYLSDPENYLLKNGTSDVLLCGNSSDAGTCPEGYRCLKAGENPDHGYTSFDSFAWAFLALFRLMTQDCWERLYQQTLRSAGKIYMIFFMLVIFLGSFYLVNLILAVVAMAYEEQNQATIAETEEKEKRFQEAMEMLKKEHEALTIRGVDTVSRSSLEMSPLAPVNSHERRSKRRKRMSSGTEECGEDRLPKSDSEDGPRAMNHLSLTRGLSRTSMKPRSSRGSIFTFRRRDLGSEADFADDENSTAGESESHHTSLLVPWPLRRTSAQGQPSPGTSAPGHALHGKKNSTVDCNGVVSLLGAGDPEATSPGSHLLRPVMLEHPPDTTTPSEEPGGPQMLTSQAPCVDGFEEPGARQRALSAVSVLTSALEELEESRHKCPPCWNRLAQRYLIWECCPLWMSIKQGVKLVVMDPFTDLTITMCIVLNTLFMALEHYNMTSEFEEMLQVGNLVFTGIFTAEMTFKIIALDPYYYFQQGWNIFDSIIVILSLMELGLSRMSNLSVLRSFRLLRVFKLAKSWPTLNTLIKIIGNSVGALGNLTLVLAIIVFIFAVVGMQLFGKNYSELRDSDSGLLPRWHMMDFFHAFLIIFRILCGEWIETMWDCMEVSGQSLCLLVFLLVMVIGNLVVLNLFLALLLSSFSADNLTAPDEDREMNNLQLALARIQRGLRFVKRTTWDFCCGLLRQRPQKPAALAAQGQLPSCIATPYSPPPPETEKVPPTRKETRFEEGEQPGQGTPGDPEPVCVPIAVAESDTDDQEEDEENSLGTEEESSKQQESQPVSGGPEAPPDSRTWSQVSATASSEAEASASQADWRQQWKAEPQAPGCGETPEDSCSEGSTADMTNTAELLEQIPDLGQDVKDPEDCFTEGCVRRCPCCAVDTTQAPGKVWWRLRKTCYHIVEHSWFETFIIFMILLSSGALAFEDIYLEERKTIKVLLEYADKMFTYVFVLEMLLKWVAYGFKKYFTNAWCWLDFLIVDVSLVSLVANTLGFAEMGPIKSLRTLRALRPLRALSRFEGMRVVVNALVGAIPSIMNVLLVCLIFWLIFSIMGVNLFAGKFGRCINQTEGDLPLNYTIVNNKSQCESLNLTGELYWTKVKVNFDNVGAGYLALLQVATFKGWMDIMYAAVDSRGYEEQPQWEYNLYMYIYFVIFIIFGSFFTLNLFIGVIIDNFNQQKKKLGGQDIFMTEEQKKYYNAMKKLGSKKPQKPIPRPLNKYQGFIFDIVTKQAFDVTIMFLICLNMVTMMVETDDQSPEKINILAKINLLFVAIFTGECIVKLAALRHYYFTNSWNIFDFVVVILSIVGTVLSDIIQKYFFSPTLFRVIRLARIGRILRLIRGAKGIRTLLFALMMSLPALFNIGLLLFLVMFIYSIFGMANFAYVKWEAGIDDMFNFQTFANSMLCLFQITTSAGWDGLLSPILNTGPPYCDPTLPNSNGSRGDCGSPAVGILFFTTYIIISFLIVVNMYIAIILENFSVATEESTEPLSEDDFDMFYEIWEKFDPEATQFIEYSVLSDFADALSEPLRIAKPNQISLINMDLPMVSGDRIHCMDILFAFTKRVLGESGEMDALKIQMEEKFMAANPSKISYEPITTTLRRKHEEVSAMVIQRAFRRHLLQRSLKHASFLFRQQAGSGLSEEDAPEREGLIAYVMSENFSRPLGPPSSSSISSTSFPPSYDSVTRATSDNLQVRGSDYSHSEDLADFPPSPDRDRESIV
- TEST_PROTOCOL: Inhibition of Nav1.5 (unknown origin)
pIC50: −log10 of the molar value.
REPORTED_ENDPOINT: pIC50

>>> print(df.to_string())
                              record_smiles                             target_entity  readout_value
0  Cc1ncc(-c2nc3c(-c4ccc5c(c4)[C@@]4(CCCN4C(=O)C4CC4)C(=O)N5C)ncnc3n2C)cn1  Sodium channel protein type 5 subunit alpha (Homo sapiens)         < 4.52

* * *

- TEST_PROTOCOL: Clearance in Wistar-Han rat at 0.5 mg/kg, iv or 1 mg/kg, po
- Assay type: ADME, organism-based
- CONDITION_SUMMARY: in vivo
REPORTED_ENDPOINT: clearance (mL/min/kg)

In [3]: df
Out[3]:
                                   molecule  reported_endpoint  readout_value
0  Cc1ncc(-c2nc3c(-c4cnc5c(c4)[C@](C)(N[C@H]4CCOC4)C(=O)N5)ncnc3n2C)cn1          clearance             58
1  CCn1c(-c2cnc(C)nc2)nc2c(-c3ccc4c(c3)[C@](C)(NC3CCC3)C(=O)N4)ncnc21          clearance             66
2  CCn1c(-c2cnc(C)nc2)nc2c(-c3ccc4c(c3)[C@](C)(CC3CCO3)C(=O)N4)ncnc21 (stereo not given in full)          clearance             27
3  CCn1c(-c2cnc(C)nc2)nc2c(-c3cnc4c(c3)[C@](C)(N3CC(C)(OC)C3)C(=O)N4)ncnc21          clearance            8.1
4  CCn1c(-c2cnc(C)nc2)nc2c(-c3cnc4c(c3)[C@](C)(NCC(C)(C)F)C(=O)N4)ncnc21          clearance             12

* * *

- TEST_PROTOCOL: Unbound volume of distribution in Wistar-Han rat at 0.5 mg/kg, iv or 1 mg/kg, po
- Assay type: ADME, organism-based
- CONDITION_SUMMARY: in vivo
Please use rule met whenever Vdu is not below 6 L/kg, and rule not met whenever it is.

>>> df
                              record_smiles  assigned_class
0  CCn1c(-c2cnc(C)nc2)nc2c(-c3ccc4c(c3)[C@](C)(N[C@H]3CCOC3)C(=O)N4)ncnc21        rule met
1  Cc1ncc(-c2nc3c(-c4cnc5c(c4)[C@](C)(N[C@H]4CCOC4)C(=O)N5)ncnc3n2C)cn1    rule not met
2  CCn1c(-c2cnc(C)nc2)nc2c(-c3ccc4c(c3)[C@@]3(CCCN3C(=O)C3CC3)C(=O)N4C)ncnc21    rule not met
3  CCn1c(-c2cnc(C)nc2)nc2c(-c3cnc4c(c3)[C@](C)(N[C@H]3CCOC3)C(=O)N4)ncnc21    rule not met
4  CCn1c(-c2cnc(C)nc2)nc2c(-c3ccc4c(c3)[C@@]3(CCCN3C(=O)C3CC3)C(=O)N4)ncnc21    rule not met
5  CCn1c(-c2cnc(C)nc2)nc2c(-c3ccc4c(c3)[C@](C)(NCC(C)(C)F)C(=O)N4)ncnc21        rule met

* * *

- TARGET_ENTITY: Voltage-dependent L-type calcium channel subunit alpha-1C (Homo sapiens)
- Sequence (Q13936 whole entry): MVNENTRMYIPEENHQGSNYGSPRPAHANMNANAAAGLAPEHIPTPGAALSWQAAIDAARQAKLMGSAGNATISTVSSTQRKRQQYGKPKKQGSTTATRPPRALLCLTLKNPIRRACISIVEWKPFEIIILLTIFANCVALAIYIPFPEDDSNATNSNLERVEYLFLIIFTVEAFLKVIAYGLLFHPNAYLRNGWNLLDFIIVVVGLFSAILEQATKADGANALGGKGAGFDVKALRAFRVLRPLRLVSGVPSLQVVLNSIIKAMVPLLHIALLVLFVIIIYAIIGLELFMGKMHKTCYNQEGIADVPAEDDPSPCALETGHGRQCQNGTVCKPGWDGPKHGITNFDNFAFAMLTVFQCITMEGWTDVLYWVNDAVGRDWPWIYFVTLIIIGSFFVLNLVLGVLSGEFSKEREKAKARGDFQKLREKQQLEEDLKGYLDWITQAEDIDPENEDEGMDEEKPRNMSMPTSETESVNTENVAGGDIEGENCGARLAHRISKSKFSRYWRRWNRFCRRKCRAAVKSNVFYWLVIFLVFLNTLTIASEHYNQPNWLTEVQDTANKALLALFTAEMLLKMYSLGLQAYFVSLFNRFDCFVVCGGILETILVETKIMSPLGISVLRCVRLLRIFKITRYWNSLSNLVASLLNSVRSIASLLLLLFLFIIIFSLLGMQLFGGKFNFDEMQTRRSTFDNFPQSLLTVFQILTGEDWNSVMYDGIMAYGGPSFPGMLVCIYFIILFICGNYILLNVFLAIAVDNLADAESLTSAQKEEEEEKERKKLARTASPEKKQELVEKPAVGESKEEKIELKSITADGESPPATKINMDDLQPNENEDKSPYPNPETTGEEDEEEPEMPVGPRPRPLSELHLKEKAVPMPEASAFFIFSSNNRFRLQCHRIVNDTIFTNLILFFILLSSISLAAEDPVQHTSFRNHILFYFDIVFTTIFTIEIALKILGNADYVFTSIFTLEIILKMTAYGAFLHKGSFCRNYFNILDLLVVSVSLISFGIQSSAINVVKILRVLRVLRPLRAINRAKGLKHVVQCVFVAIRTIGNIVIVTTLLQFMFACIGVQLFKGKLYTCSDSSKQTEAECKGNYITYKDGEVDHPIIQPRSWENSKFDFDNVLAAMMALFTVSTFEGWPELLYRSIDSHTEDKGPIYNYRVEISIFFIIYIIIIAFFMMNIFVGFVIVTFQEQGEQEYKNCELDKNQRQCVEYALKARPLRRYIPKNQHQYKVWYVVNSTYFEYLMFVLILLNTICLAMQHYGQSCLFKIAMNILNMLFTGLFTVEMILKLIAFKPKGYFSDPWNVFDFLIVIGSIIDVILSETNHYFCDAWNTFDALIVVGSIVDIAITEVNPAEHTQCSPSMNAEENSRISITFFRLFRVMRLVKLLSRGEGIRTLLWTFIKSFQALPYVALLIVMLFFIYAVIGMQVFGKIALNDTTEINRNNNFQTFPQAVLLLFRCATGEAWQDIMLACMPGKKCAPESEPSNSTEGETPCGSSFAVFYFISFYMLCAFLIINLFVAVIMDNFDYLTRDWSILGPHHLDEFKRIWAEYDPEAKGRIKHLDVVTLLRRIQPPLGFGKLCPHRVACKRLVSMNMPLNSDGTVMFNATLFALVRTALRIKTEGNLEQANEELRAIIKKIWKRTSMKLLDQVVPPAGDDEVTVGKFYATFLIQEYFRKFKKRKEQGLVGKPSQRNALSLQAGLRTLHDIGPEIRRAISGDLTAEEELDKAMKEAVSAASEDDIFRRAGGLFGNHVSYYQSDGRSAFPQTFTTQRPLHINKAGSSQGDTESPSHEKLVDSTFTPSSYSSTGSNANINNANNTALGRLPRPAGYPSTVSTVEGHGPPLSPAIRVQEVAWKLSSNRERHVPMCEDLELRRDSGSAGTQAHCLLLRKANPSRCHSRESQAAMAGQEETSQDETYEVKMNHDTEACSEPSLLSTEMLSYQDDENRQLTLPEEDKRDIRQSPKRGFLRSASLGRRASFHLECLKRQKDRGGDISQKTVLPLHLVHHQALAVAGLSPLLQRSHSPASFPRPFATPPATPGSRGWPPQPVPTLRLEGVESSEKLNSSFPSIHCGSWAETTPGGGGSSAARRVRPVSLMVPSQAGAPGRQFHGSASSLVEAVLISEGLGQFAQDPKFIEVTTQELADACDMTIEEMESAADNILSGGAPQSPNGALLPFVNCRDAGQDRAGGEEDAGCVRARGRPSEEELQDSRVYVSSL
- TEST_PROTOCOL: Inhibition of Cav1.2 (unknown origin)
pIC50: −log10 of the molar value.
REPORTED_ENDPOINT: pIC50

>>> print(df.to_string())
                              record_smiles  readout_value
0  Cc1ncc(-c2nc3c(-c4ccc5c(c4)[C@@]4(CCCN4C(=O)C4CC4)C(=O)N5C)ncnc3n2C)cn1         < 4.52

* * *

- TEST_PROTOCOL: Volume of distribution in Wistar-Han rat at 0.5 mg/kg, iv or 1 mg/kg, po
- Format: ADME, organism-based
- CONDITION_SUMMARY: in vivo
REPORTED_ENDPOINT: Vd (L/kg)

>>> print(df.to_string())
                                    molecule  readout_value
 0  CCn1c(-c2cnc(C)nc2)nc2c(-c3ccc4c(c3)[C@](C)(N3CC(C)(OC)C3)C(=O)N4)ncnc21            1.9
 1  CCn1c(-c2cnc(C)nc2)nc2c(-c3cnc4c(c3)[C@](C)(NCC(C)(C)F)C(=O)N4)ncnc21            2.4
 2  Cc1ncc(-c2nc3c(-c4ccc5c(c4)[C@@]4(CCCN4C(=O)C4CC4)C(=O)N5)ncnc3n2C)cn1            1.9
 3  CCn1c(-c2cnc(C)nc2)nc2c(-c3ccc4c(c3)[C@](C)(N[C@H]3CCOC3)C(=O)N4)ncnc21            3.7
 4  CCn1c(-c2cnc(C)nc2)nc2c(-c3ccc4c(c3)[C@@]3(CCCN3C(=O)C3CC3)C(=O)N4C)ncnc21            0.7
 5  CCn1c(-c2cnc(C)nc2)nc2c(-c3cnc4c(c3)[C@](C)(N3CC(C)(OC)C3)C(=O)N4)ncnc21            1.7
 6  CCn1c(-c2cnc(C)nc2)nc2c(-c3cnc4c(c3)[C@](C)(NC3CCC3)C(=O)N4)ncnc21            2.1
 7  CCn1c(-c2cnc(C)nc2)nc2c(-c3ccc4c(c3)[C@](C)(NC3CCC3)C(=O)N4)ncnc21            2.4
 8  CCn1c(-c2cnc(C)nc2)nc2c(-c3ccc4c(c3)[C@](C)(NCC(C)(F)F)C(=O)N4)ncnc21            3.3
 9  CCn1c(-c2cnc(C)nc2)nc2c(-c3ccc4c(c3)[C@](C)(CC3CCO3)C(=O)N4)ncnc21 (stereo partly specified)            2.4
10  CCn1c(-c2cnc(C)nc2)nc2c(-c3cnc4c(c3)[C@](C)(N[C@H]3CCOC3)C(=O)N4)ncnc21            3.8
11  CCn1c(-c2cnc(C)nc2)nc2c(-c3ccc4c(c3)[C@@]3(CCCN3C(=O)C3CC3)C(=O)N4)ncnc21            1.9
12  CCn1c(-c2cnc(C)nc2)nc2c(-c3ccc4c(c3)[C@@]3(CCCN3C(C)C)C(=O)N4)ncnc21            3.1
13  Cc1ncc(-c2nc3c(-c4ccc5c(c4)[C@@]4(CCCN4C(=O)C4CC4)C(=O)N5C)ncnc3n2C)cn1            1.4
14  CCn1c(-c2cnc(C)nc2)nc2c(-c3ccc4c(c3)[C@](C)(NCC(C)(C)F)C(=O)N4)ncnc21              3
15  Cc1ncc(-c2nc3c(-c4cnc5c(c4)[C@](C)(N[C@H]4CCOC4)C(=O)N5)ncnc3n2C)cn1            2.4
